The values you see were collected from patent US20260258115A1.

Each entry below lists one item and its recorded pKd value.
- subjectOfTest: T1, RSV prefusion F (preF), subtype B (respiratory syncytial virus subtype B)
- T1 construct: also called Prefusion subtype B
- assayRemarks: BLI, IgG
Note on pKd: it is the negative log10 of concentration, concentration in mol/L.

## Task Using known records, supply pKd for ADI-25479 (antibody, V domains shown, full-length IgG) VH: EVQLVESGGGLVKPGGSLRLSCAASGFTFSSYSMNWVRQAPGKGLEWVSSISSSSSYIYYADSVKGRFTISRDNAKNSLYLQMNSLRAEDTAVYYCARGGYSYGAYYYYYMDVWGKGTTVTVSS VL: QSVLTQPPSVSGAPGQRVTISCTGSSSNIGAGYDVHWYQQLPGTAPKLLIYGNSNRPSGVPDRFSGSKSGTSASLAITGLQAEDEADYYCQSYDSSLSGYWVFGGGTKLTVL
## Result 8.37

## Task Using known records, supply pKd for ADI-25577 (antibody, V domains shown, full-length IgG) VH: QVTLKESGGGLVKPGGSLRLSCAASGFTFSSYSMNWVRQAPGKGLEWVSSISSSSSYIYYADSVKGRFTISRDNAKNSLYLQMNSLRAEDTAVYYCARYSSSLGAFDIWGQGTMVTVSS VL: QSALTQPPSVSGAPGQRVTISCTGSSSNIGAGYDVHWYQQLPGTAPKLLIYGNSNRPSGVPDRFSGSKSGTSASLAITGLQAEDEADYYCQSYDSSLSDVFGTGTKLTVL
## Result 7.35

## Task Using known records, supply pKd for ADI-19421 (antibody, V domains shown, full-length IgG) VH: EVQLLESGGGVVQPGRSLRLSCAASGFTFSSYGMHWVRQAPGKGLEWVAVISYDGSNKYYADSVKGRFTISRDNSKNTLYLQMNSLRAEDTAVYYCAKDIHHVLRFLDPDYWGQGTLVTVSS VL: QSVLIQPASVSGFPGQSITISCTGTSSDVGGYNYVSWYQQHPGKAPKLMIYEVSNRPSGVSNRFSGSKSGNTASLTISGLQAEDEADYYCSSYTSSSTLVFGGGTKLTVL
## Result 8.27
